organism: Rattus norvegicus; test: DrugMatrix - Regimen: Daily Repeat; assay type: toxicity, organism-based, Sprague-Dawley; parameters: regimen Daily Repeat, gender Male, age 6-8 weeks; conditions: in vivo, po, 0 mg/kg, 120 h, tissue Plasma, route oral GAVAGE, dose level Control, time 5 day, vehicle .5 % CMC
# PHOSPHORUS annotations
Give the number; mg/dL is assumed, so skip it.

1) CC(C)(C#N)c1cc(Cn2cncn2)cc(C(C)(C)C#N)c1 : 12.32
2) CC(C)NCC(O)COc1ccc(CC(N)=O)cc1 (stereo not given) : 10.03
3) CN(C)CCOC(c1ccccc1)c1ccccc1.Cn1c(=O)c2[nH]c(Cl)nc2n(C)c1=O [DIMENHYDRINATE] : 11.93
4) Cc1cc2c(s1)Nc1ccccc1N=C2N1CCN(C)CC1 : 12

Input: Kindly indicate its recorded PHOSPHORUS. Item: O=C1c2ccccc2C(=O)C1c1ccccc1
Output: 12.07

====

species on record: Rattus norvegicus; experiment: DrugMatrix - Regimen: Daily Repeat; type: toxicity, organism-based, Sprague-Dawley; design: regimen Daily Repeat, gender Male, age 6-8 weeks; conditions: in vivo, po, 0 mg/kg, 72 h, tissue Blood, route oral GAVAGE, dose level Control, time 3 day, vehicle .5 % CMC
reported-metric: HEMOGLOBIN
Your answer should be a number followed by the unit of measure.

Input: Kindly indicate its recorded HEMOGLOBIN. Item: COc1ccc(Cl)cc1C(=O)NCCc1ccc(S(=O)(=O)NC(=O)NC2CCCCC2)cc1 [GLYBURIDE]
Output: 14.82 G/DL

Input: Kindly indicate its recorded HEMOGLOBIN. Item: Nc1ccc(C(=O)O)c(O)c1
Output: 14.82 G/DL

====

species on record: Rattus norvegicus; assay: DrugMatrix - Regimen: Daily Repeat; type: toxicity, organism-based, Sprague-Dawley; set-up: regimen Daily Repeat, gender Male, age 6-8 weeks; settings: in vivo, po, 0 mg/kg, 120 h, tissue Blood, route oral GAVAGE, dose level Control, time 5 day, vehicle .5 % CMC
# HEMOGLOBIN annotations
Give the number; G/DL is assumed, so skip it.

1. NCC(CC(=O)O)c1ccc(Cl)cc1 (stereo not given) [BACLOFEN] : 13.22

Input: Kindly indicate its recorded HEMOGLOBIN. Item: CCN(CC)CCNC(=O)c1cc(Cl)c(N)cc1OC [METOCLOPRAMIDE]
Output: 15.24

Input: Kindly indicate its recorded HEMOGLOBIN. Item: CN(C)CCOC(c1ccccc1)c1ccccc1.Cn1c(=O)c2[nH]c(Cl)nc2n(C)c1=O [DIMENHYDRINATE]
Output: 14.27

Input: Kindly indicate its recorded HEMOGLOBIN. Item: CC(C)(C#N)c1cc(Cn2cncn2)cc(C(C)(C)C#N)c1 [ANASTROZOLE]
Output: 14.08

Input: Kindly indicate its recorded HEMOGLOBIN. Item: O=C1c2ccccc2C(=O)C1c1ccccc1 [PHENINDIONE]
Output: 14.1

====

# ABSOLUTE SEGMENTED NEUTROPHIL annotations
organism: Rattus norvegicus; experiment: DrugMatrix - Regimen: Daily Repeat; format: toxicity, organism-based, Sprague-Dawley; set-up: regimen Daily Repeat, gender Male, age 6-8 weeks; conditions: in vivo, po, 1500 mg/kg, 120 h, tissue Blood, route oral GAVAGE, dose level High, time 5 day, vehicle .5 % CMC
Give the number; CELLS/uL is assumed, so skip it.

Example entries and their recorded answers appear below.
1) CC[C@H]1OC(=O)[C@H](C)[C@@H](O[C@H]2C[C@@](C)(OC)[C@@H](O)[C@H](C)O2)[C@H](C)[C@@H](O[C@@H]2O[C@H](C)C[C@H](N(C)C)[C@H]2O)[C@](C)(O)C[C@@H](C)C(=O)[C@H](C)[C@@H](O)[C@]1(C)O : 1949.33
2) Cc1ccc(S(=O)(=O)NC(=O)NN2CCCCCC2)cc1 [TOLAZAMIDE] : 1493
3) O=C(O)CCc1nc(-c2ccccc2)c(-c2ccccc2)o1 : 3096

Consider the additional compound presented here.
Input: Kindly indicate its recorded ABSOLUTE SEGMENTED NEUTROPHIL. Item: COc1cc(/C=C/C(=O)O)ccc1O [FERULATE]
Output: 967

Source listed as ChEMBL document CHEMBL3885881.
